# assayExplanation: Tmax in ICR mouse at 1 to 10 mg/kg, po
# Type: ADME, organism-based
# particulars: in vivo, dose 1-10 mg/kg
resultType: Tmax
Give your result as the value with the unit written after it.

-- ask Return reported Tmax; argument: N[C@@H](CCNC(=O)N1CCn2c(nnc2C(F)(F)F)C1)Cc1cc(F)c(F)cc1F
-- reply 2 h

====

In what follows, each item is paired with its IC50 for UniProt:P27487.
State the answer as a number, implicitly in nM.

CC#CCn1c(N2CCC[C@@H](N)C2)cc(=O)n(Cc2cn(CCC(=O)OC)nn2)c1=O 64
CC#CCn1c(N2CCC[C@@H](N)C2)cc(=O)n(Cc2cn(CCC(=O)O)nn2)c1=O 12.4
CC#CCn1c(N2CCC[C@@H](N)C2)cc(=O)n(Cc2cn(-c3ccccc3)nn2)c1=O 185

Kindly review the next compound as well.
-- ask Please provide the recorded IC50 for CC#CCn1c(N2CCC[C@@H](N)C2)cc(=O)n(Cc2cn(C/C=C/C(=O)O)nn2)c1=O , tested on UniProt:P27487.
-- reply 9.56

====

# assayExplanation: Aqueous stability in phosphate buffer at pH 7.4 assessed as half life
# Assay type: physicochemical
resultType: half-life (h)
State the answer as a number, implicitly in h.

-- ask Return reported half-life; argument: CO[C@@H]1CCCN1C(=O)CC(C)(C)[C@H](N)C(=O)N1CCC[C@H]1C#N.O=C(O)C(F)(F)F
-- reply 168

====

# targetUnderTest: Dipeptidyl peptidase 4 (Homo sapiens)
# Sequence (P27487 whole entry): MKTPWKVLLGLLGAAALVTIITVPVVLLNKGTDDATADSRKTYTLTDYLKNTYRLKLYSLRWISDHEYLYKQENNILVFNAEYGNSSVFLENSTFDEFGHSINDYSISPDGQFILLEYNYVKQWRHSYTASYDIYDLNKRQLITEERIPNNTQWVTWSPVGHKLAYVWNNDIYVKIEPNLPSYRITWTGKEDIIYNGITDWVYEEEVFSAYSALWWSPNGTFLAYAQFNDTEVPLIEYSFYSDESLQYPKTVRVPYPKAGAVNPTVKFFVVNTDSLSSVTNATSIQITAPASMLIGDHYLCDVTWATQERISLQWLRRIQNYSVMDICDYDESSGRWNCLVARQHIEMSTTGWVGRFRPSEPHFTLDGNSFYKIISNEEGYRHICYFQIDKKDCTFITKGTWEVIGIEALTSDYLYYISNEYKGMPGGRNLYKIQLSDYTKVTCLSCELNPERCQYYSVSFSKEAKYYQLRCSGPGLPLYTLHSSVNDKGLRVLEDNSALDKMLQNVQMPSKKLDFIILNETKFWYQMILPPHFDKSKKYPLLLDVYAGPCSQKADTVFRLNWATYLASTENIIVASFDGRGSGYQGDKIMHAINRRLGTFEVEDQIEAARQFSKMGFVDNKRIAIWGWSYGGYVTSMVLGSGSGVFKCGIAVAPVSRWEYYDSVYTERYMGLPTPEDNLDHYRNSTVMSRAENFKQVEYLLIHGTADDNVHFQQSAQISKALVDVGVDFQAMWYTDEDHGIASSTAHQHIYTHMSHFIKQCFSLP
# assayExplanation: Inhibition of human recombinant DPP-4 using H-Gly-Pro-aminomethylcoumarin as substrate
Recorded pIC50, one value per entry.
Please report pIC50 as the negative decimal logarithm of the molar concentration, giving only the number.

NCc1c(-c2ccc(Cl)cc2Cl)nc2ccccn12 6.89

Kindly review the next compound as well.
-- ask Return reported pIC50; argument: Cc1ccccc1-c1nc2ccccn2c1CN
-- reply 6.54

====

# targetUnderTest: Dipeptidyl peptidase 4 (Homo sapiens)
# assayExplanation: Inhibition of DPP-4 (unknown origin) using (H-Gly-Pro-AMC) as substrate
resultType: pIC50
Please report pIC50 as the negative decimal logarithm of the molar concentration, giving only the number.

-- ask Return reported pIC50; argument: Cc1ccc2cc(CNc3nc(C)cs3)n(/N=C/c3ccc(O)cc3)c(=O)c2c1
-- reply 8.95

====

# assayExplanation: Half life in KKAy mouse at 10 to 30 mg/kg
# Type: ADME, organism-based
# particulars: in vivo, dose 10-30 mg/kg
resultType: half-life (h)
State the answer as a number, implicitly in h.

-- ask Return reported half-life; argument: N#C[C@@H]1C[C@H](F)CN1C(=O)[C@@H](N)Cc1ccccc1
-- reply 5.4

====

# assayExplanation: Half life in Sprague-Dawley rat at 3 mg/kg, po
# Assay type: ADME, organism-based
# particulars: in vivo
resultType: half-life

-- ask Return reported half-life; argument: N#C[C@@H]1C[C@H]2[C@H](CC2(F)F)N1C(=O)[C@@H](N)C12CC3CC(CC(O)(C3)C1)C2
-- reply 55.2 min

====

Recorded pIC50, one value per entry.
# targetUnderTest: Dipeptidyl peptidase 4 (Homo sapiens)
# Type: cell-based, Caco-2
Please report pIC50 as the negative decimal logarithm of the molar concentration, giving only the number.

N[C@@H](CC(=O)N1CCC[C@H]1CNC(=O)c1cccnc1)[C@H]1CCc2cc(F)c(F)cc21 9.06
CS(=O)(=O)c1cccc(C(=O)NC[C@@H]2CCCN2C(=O)C[C@H](N)[C@H]2CCc3cc(F)c(F)cc32)c1 8.97
CCN(CC)S(=O)(=O)c1cc(C(=O)NC[C@@H]2CCCN2C(=O)C[C@H](N)[C@H]2CCc3cc(F)c(F)cc32)ccc1F 9.06

-- ask Return reported pIC50; argument: N[C@@H](CC(=O)N1CCC[C@H]1CNC(=O)c1cc(S(=O)(=O)N2CCC2)c(F)cc1F)[C@H]1CCc2cc(F)c(F)cc21
-- reply 9.06

-- ask Return reported pIC50; argument: CCN(CC)S(=O)(=O)c1cc(C(=O)NC[C@@H]2CCCN2C(=O)C[C@H](N)[C@H]2CCc3cc(F)c(F)cc32)c(F)cc1F
-- reply 9.06
